Documented inhibition across a set of molecules
EXPERIMENT DESCRIPTION: UWB1.289_BRCA1 ovarian cancer growth, cell-based, BGB or cisplatin combinations (AID 1671459)
APPLIED CONDITIONS: UWB1.289 BRCA1 ovarian carcinoma, drug combinations, BGB combination, concentration series, at 5 µM, stronger effect = higher value
Record the result as number plus unit.

{"COMPOUND SMILES": "O=c1oc2c(O)c(O)cc3c(=O)oc4c(O)c(O)cc1c4c23", "VALUE KIND": "inhibition", "OBSERVED MEASUREMENT": "12.5%"}
{"COMPOUND SMILES": "O=C(O)P(=O)(O)O", "VALUE KIND": "inhibition", "OBSERVED MEASUREMENT": "-19.2%"}
{"COMPOUND SMILES": "O=NN(CCCl)C(=O)NCCCl", "VALUE KIND": "inhibition", "OBSERVED MEASUREMENT": "3.47%"}

inhibition recorded for this molecule, Nc1nc2c(ncn2COC(CO)CO)c(=O)[nH]1 , is 35.4%

inhibition recorded for this molecule, Nc1nc(=S)c2[nH]cnc2[nH]1 , is 113%

inhibition recorded for this molecule, O=c1c(O)c(-c2ccc(O)c(O)c2)oc2cc(O)cc(O)c12 , is 2.88%

inhibition recorded for this molecule, Cc1nc2ccc(CN(C)c3ccc(C(=O)N[C@@H](CCC(=O)O)C(=O)O)s3)cc2c(=O)[nH]1 , is 48.7%

inhibition recorded for this molecule, CCn1cc(C(=O)O)c(=O)c2cc3c(cc21)OCO3 , is -2.14%

inhibition recorded for this molecule, Cc1oncc1C(=O)Nc1ccc(C(F)(F)F)cc1 , is 74.1%

inhibition recorded for this molecule, NC(=O)NO , is 13.1%

---

Documented inhibition across a set of molecules
EXPERIMENT DESCRIPTION: growth inhibition, single agents and combos, LFS_MB_1R, cell-based, cisplatin or BGB combos, synergistic combos for chromothripsis tumors (AID 1671452);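 further: cells exposed for 96 hours before readout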
APPLIED CONDITIONS: LFS_MB_1R medulloblastoma cells, at 0.5 µM, stronger effect = higher value
Answer format: numeric, % implied, no suffix.

{"MOLECULE": "C[C@H]1COc2c(C3(N)CC3)c(F)cc3c(=O)c(C(=O)O)cn1c23", "MEASURE UNIT": "%", "inhibition": -26.1}
{"MOLECULE": "O=C(O)P(=O)(O)O", "MEASURE UNIT": "%", "inhibition": -51.1}
{"MOLECULE": "CN(C)c1ccc(C(=C2C=CC(=[N+](C)C)C=C2)c2ccc(N(C)C)cc2)cc1", "MEASURE UNIT": "%", "inhibition": 80.9}
{"MOLECULE": "O=c1oc2c(O)c(O)cc3c(=O)oc4c(O)c(O)cc1c4c23", "MEASURE UNIT": "%", "inhibition": -12.6}
{"MOLECULE": "Cc1oncc1C(=O)Nc1ccc(C(F)(F)F)cc1", "MEASURE UNIT": "%", "inhibition": -18.1}
{"MOLECULE": "CC(N)C12CC3CC(CC(C3)C1)C2 (stereo not given)", "MEASURE UNIT": "%", "inhibition": -32.9}
{"MOLECULE": "O=C(O)CCCCCCCC(=O)O", "MEASURE UNIT": "%", "inhibition": -28.5}
{"MOLECULE": "NC(=O)NO", "MEASURE UNIT": "%", "inhibition": -11.7}

inhibition recorded for this molecule, Nc1nc2c(ncn2COC(CO)CO)c(=O)[nH]1 , is 26.9

inhibition recorded for this molecule, O=NN(CCCl)C(=O)NCCCl , is -12.2

---

Documented inhibition across a set of compounds
EXPERIMENT DESCRIPTION: growth inhibition, single agent and combos, cell-based, chromothripsis tumors, cisplatin or BGB combos (AID 1671450);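 further: cells exposed to compound for four days; 0% = vehicle DMSO and 100% = cell killing by high DMSO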
APPLIED CONDITIONS: HDN33 neuroblastoma cells, measured here: with BGB IC20 combination, at 0.5 µM, stronger effect = higher value
Answer format: numeric, % implied, no suffix.

{"COMPOUND SMILES": "Nc1[nH]c(=O)ncc1F", "VALUE KIND": "inhibition", "OBSERVED MEASUREMENT": -4.48}
{"COMPOUND SMILES": "CCN1CCN(c2cc3c(cc2F)c(=O)c(C(=O)O)cn3C2CC2)CC1", "VALUE KIND": "inhibition", "OBSERVED MEASUREMENT": -32.1}

inhibition recorded for this compound, O=C(O)P(=O)(O)O , is -38.1

inhibition recorded for this compound, O=NN(CCCl)C(=O)NCCCl , is 11.2

inhibition recorded for this compound, O=C(O)CCCCCCCC(=O)O , is -45.6

inhibition recorded for this compound, O=c1oc2c(O)c(O)cc3c(=O)oc4c(O)c(O)cc1c4c23 , is -1.3

inhibition recorded for this compound, O=c1c(O)c(-c2ccc(O)c(O)c2)oc2cc(O)cc(O)c12 , is -21.2

inhibition recorded for this compound, CCn1cc(C(=O)O)c(=O)c2cc3c(cc21)OCO3 , is 31.7

---

EXPERIMENT DESCRIPTION: drug combination growth inhibition, ovarian cancer – cell-based, oncology-focused library, rucaparib conditional, profiling panel (AID 1508598)
APPLIED CONDITIONS: patient-derived ovarian cancer cells, CellTiter-Glo viability, 144 h; at 5 µM; OCI-C5x cells; without rucaparib
Calls of active or inactive are those of the source.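 The calls were made as follows: active = normalized viability below 100% at a tested concentration; inactive = the rest.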
Answer with one of the outcomes T for active, F for inactive

Req: Please let me know the test result on file for CCC(C)n1ncn(-c2ccc(N3CCN(c4ccc(OC[C@H]5CO[C@](Cn6cncn6)(c6ccc(Cl)cc6Cl)O5)cc4)CC3)cc2)c1=O (stereo partly drawn) .
Resp: F

Req: Please let me know the test result on file for Cc1nc2ccc(CN(C)c3ccc(C(=O)N[C@@H](CCC(=O)O)C(=O)O)s3)cc2c(=O)[nH]1 .
Resp: T

Req: Please let me know the test result on file for N#Cc1ccc(C(c2ccc(C#N)cc2)n2cncn2)cc1 .
Resp: F

---

EXPERIMENT DESCRIPTION: galactose survival enhancers in mitochondrial complex I cybrids – cell-based, galactose medium, ATP luminescence, primary screen (AID 1645843);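 further: positive z means more ATP and so rescue of galactose-driven cybrid death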
APPLIED CONDITIONS: complex I mutant cybrid cells, 72 h, stronger effect = higher value
VALUE KIND: z-score
Could you keep your reply to the number by itself?

{"COMPOUND": "C[N+]1(CCCCC[N+]2(C)CCCC2)CCCC1", "z-score": 0.235}
{"COMPOUND": "Nc1c2c(nc3c1CCC3)CCCC2", "z-score": -0.465}
{"COMPOUND": "CN(C)CC[C@@H](c1ccc(Cl)cc1)c1ccccn1", "z-score": -0.155}
{"COMPOUND": "CC(C)(C(=O)c1cccnc1)c1cccnc1", "z-score": 0.18}
{"COMPOUND": "COC(=O)Nc1nc2ccc(S(=O)c3ccccc3)cc2[nH]1 (stereo not drawn)", "z-score": -0.185}

z-score recorded for this compound, CCN1CCN(C(=O)N[C@@H](C(=O)N[C@@H]2C(=O)N3C(C(=O)O)=C(CSc4nnnn4C)CS[C@H]23)c2ccc(O)cc2)C(=O)C1=O , is -0.045

z-score recorded for this compound, CCCC(C(=O)OCCN(CC)CC)(c1ccccc1)c1ccccc1 , is -1.28

z-score recorded for this compound, O=C(CCCN1CCN(c2ccccn2)CC1)c1ccc(F)cc1 , is -0.625

z-score recorded for this compound, CO[C@]12C[C@@H](COC(=O)c3cncc(Br)c3)CN(C)[C@@H]1Cc1cn(C)c3cccc2c13 , is 1.27

z-score recorded for this compound, CO[C@@]12[C@H](COC(N)=O)C3=C(C(=O)C(C)=C(N)C3=O)N1C[C@@H]1N[C@@H]12 , is -1.99

z-score recorded for this compound, CN(Cc1cc(Br)cc(Br)c1N)C1CCCCC1 , is -1.71

z-score recorded for this compound, C[C@@H]1CN(CCCn2c3ccccc3c3ccccc32)C[C@H](C)N1 , is -0.695

---

Documented insulin secretion stimulation across a set of compounds
EXPERIMENT DESCRIPTION: stimulators of insulin release from INS-1E, primary screen, cell-based, 5 mM glucose, NPC library (AID 1117329)
APPLIED CONDITIONS: rat INS-1E insulin secretion, at 10 µM, stronger effect = higher value
Active and inactive are the calls of the source.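 The calls were made as follows: active = compound raises insulin release from rat beta cells at 5 mM glucose, no numeric limit stated; inactive = the rest.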

These recorded examples may help you get a feel for the data.
{"COMPOUND": "CC1(C)S[C@@H]2[C@H](NC(=O)C(C(=O)O)c3ccccc3)C(=O)N2[C@H]1C(=O)O (stereo not given in full)", "insulin secretion stimulation": "-0.6% (inactive)"}
{"COMPOUND": "Cc1ccsc1C(=CCCN1CCC[C@@H](C(=O)O)C1)c1sccc1C", "insulin secretion stimulation": "0.1% (inactive)"}
{"COMPOUND": "O=c1cc(CO)occ1O", "insulin secretion stimulation": "-1.3% (inactive)"}
{"COMPOUND": "N#Cc1ccc(C(c2ccc(C#N)cc2)n2cncn2)cc1", "insulin secretion stimulation": "0.6% (inactive)"}
{"COMPOUND": "CN1CCCCC1CCN1c2ccccc2Sc2ccc(S(C)=O)cc21 (stereo not given)", "insulin secretion stimulation": "15.2% (inactive)"}

insulin secretion stimulation recorded for this compound, C[N+]1(C)[C@@H]2CC(OC(=O)[C@H](CO)c3ccccc3)C[C@H]1[C@@H]1O[C@@H]12 (stereo not given in full) , is 0.2% (inactive)

insulin secretion stimulation recorded for this compound, CC1(C)NC(=O)N(c2ccc([N+](=O)[O-])c(C(F)(F)F)c2)C1=O , is 0.7% (inactive)

insulin secretion stimulation recorded for this compound, CN(C)CCOC(=O)C(c1ccccc1)C1(O)CCCC1 (stereo not given) , is 0.2% (inactive)

insulin secretion stimulation recorded for this compound, O=C1c2cccc3c2[C@H](CCC3)CN1[C@@H]1CN2CCC1CC2 , is 2.7% (inactive)

insulin secretion stimulation recorded for this compound, COC(=O)[C@H]1[C@H]2C[C@@H]3c4[nH]c5cc(OC)ccc5c4CCN3C[C@H]2C[C@@H](OC(=O)c2cc(OC)c(OC)c(OC)c2)[C@@H]1OC , is -0.3% (inactive)

Hey, just so you know, these numbers are from PubChem BioAssay.
